Biological target: Type-1 angiotensin II receptor (Oryctolagus cuniculus)
Sequence (P34976 whole entry): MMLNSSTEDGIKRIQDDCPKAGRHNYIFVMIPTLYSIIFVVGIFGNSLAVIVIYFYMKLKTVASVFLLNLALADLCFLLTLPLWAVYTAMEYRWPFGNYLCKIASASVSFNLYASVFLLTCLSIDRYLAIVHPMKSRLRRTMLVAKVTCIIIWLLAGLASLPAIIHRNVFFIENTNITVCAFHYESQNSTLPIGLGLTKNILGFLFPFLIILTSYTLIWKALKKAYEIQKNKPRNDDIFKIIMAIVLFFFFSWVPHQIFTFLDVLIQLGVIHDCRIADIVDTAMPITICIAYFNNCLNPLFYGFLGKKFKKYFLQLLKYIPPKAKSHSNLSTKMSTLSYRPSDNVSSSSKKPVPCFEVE
# log10 IC50 per entry
On a log10 scale: recorded IC50, unit nM.

>  <compound>
CCCc1nnc(SCc2ccccc2)n1Cc1ccc(NC(=O)c2ccccc2C(=O)O)cc1

>  <log10 IC50>
2.08

$$$$
>  <compound>
CCSc1nnc(-c2ccccc2)n1Cc1ccc(NC(=O)c2ccccc2C(=O)O)cc1

>  <log10 IC50>
3.28

$$$$

-- ask Need log10 IC50, item `CCCCc1nc2ccccc2n1Cc1ccc(-c2ccccc2-c2nn[nH]n2)cc1`
-- reply 1.98

-- ask Next compound up: `CCSc1nnc(C(F)(F)F)n1Cc1ccc(NC(=O)c2ccccc2C(=O)O)cc1`
-- reply 3.68

-- ask Next compound up: CCCCc1nnc([S+]([O-])Cc2ccc(OC)cc2)n1Cc1ccc(NC(=O)c2ccccc2-c2nn[nH]n2)cc1 (centres undefined)
-- reply 1.45

-- ask Next compound up: `CCCCc1nnc(SCc2cccc(OC)c2)n1Cc1ccc(NC(=O)c2ccccc2C(=O)O)cc1`
-- reply 1.32

-- ask Next compound up: `CCCCc1nnc(SCc2ccc(OC)cc2)n1Cc1ccc(-c2ccccc2-c2nnn[nH]2)cc1`
-- reply 1.49

-- ask Next compound up: CCCCc1nnc([S+]([O-])Cc2ccc(OC)cc2)n1Cc1ccc(NC(=O)c2ccccc2C(=O)O)cc1 (centres undefined)
-- reply 0.87

-- ask Next compound up: `CCCCc1nnc(SCc2ccccc2C)n1Cc1ccc(NC(=O)c2ccccc2C(=O)O)cc1`
-- reply 1.15
